# Tested on: Neutrophil
# assay info: Inhibition of oxidative burst in PMA-stimulated human neutrophils assessed as inhibition of ROS-induced luminol oxidation incubated for 5 mins prior to PMA challenge by chemiluminescence assay
# Type: functional, cell-based
pIC50: −log10 of the molar value.
measured metric: pIC50

Reference set, count: 5
O=c1cc(-c2ccccc2)oc2cc(O)cc(O)c12 | 4.28
O=C1CC(c2ccc(O)cc2)Oc2cc(O)cc(O)c21 (racemic) | 4.29
O=c1cc(-c2cccc(O)c2)oc2ccccc12 | 4.62
O=c1cc(-c2ccc(O)cc2)oc2cccc(O)c12 | 4.74
O=c1cc(-c2ccc(O)c(O)c2)oc2ccccc12 | 5.52

A = COc1cc(-c2cc(=O)c3c(O)cc(O)cc3o2)ccc1O
B = O=c1cc(-c2ccc(O)cc2)oc2cc(O)cc(O)c12
Query block: Return label of the item with the larger pIC50. Candidates: A , B . Answer by quoting the chosen item's label.
Result block: A
